TEST NAME: AUC in rat at 10 mg/kg, po
Format: ADME, organism-based
Set-up: dose 10 mg/kg, route oral
CONDITION NOTES: plasma
MEASURE NAME: log10(AUC) (log10 of the value in µM·h)
Scale: decimal log of AUC, AUC in µM·h.

CC(C)(C)NC(=O)N[C@H](C(=O)N1C[C@H]2[C@@H]([C@H]1C(=O)NC(CC1CCC1)C(=O)C(N)=O)C2(C)C)C(C)(C)C (stereo partly specified) [BOCEPREVIR] :: -0.85
C=CCNC(=O)C(=O)C(CCC)NC(=O)[C@@H]1CC2(CN1C(=O)[C@@H](NC(=O)NC1(CS(=O)(=O)C(C)(C)C)CCCCC1)C(C)(C)C)SCCCS2 (stereo partly specified) :: 0.41
C=CCNC(=O)C(=O)C(CCC)NC(=O)[C@@H]1CC2(CN1C(=O)[C@@H](NC(=O)N[C@@H](CN1C(=O)CC(C)(C)CC1=O)C(C)(C)C)C(C)(C)C)SCCS2 (stereo partly specified) :: -1.22
C=CCNC(=O)C(=O)C(CC1CC1)NC(=O)[C@@H]1CC2(CN1C(=O)[C@@H](NC(=O)NC1(CS(=O)(=O)C(C)(C)C)CCCCC1)C(C)(C)C)SCCS2 (stereo partly specified) :: -0.11
C=CCNC(=O)C(=O)C(CCC)NC(=O)[C@@H]1CC2(CN1C(=O)[C@@H](NC(=O)N[C@@H](CN1C(=O)CC(C)(C)CC1=O)C(C)(C)C)C1(C)CCCCC1)SCCS2 (stereo partly specified) :: -1.40

Turning now to a further record.
Problem: What value of log10(AUC) has been reported for the following compound? C=CCNC(=O)C(=O)C(CCCC)NC(=O)[C@@H]1CC2(CN1C(=O)[C@@H](NC(=O)N[C@@H](CN1C(=O)CC(C)(C)CC1=O)C(C)(C)C)C(C)(C)C)SCCS2 (stereo partly specified)
Result: -0.70

====

TEST NAME: Selectivity for HCV NS3 serine protease over human neutrophil elastase
Below, each entry is listed with its recorded Ratio.
API doc: respond with a numeric literal and nothing else, no unit.

Please review the following examples before continuing.
C=CCNC(=O)C(=O)C(CCC)NC(=O)[C@@H]1CC2(CN1C(=O)[C@@H](NC(=O)NC1(CS(=O)(=O)C(C)(C)C)CCCCC1)C(C)(C)C)SCCS2 (stereo partly drawn) :: 50
C=CCNC(=O)C(=O)C(CC1CC1)NC(=O)[C@@H]1CC2(CN1C(=O)[C@@H](NC(=O)N[C@@H](C(=O)OC1CC1)C(C)C)C(C)(C)C)SCCS2 (stereo partly drawn) :: 40

// switching to the query compound
Problem: Sample C=CCNC(=O)C(=O)C(CC1CC1)NC(=O)[C@@H]1CC2(CN1C(=O)[C@@H](NC(=O)N[C@@H](CN1C(=O)CC(C)(C)CC1=O)C(C)(C)C)C(C)(C)C)SCCS2 (stereo partly drawn) — what was its Ratio?
Result: 290

====

Reported pKi values follow for various compounds
TEST NAME: Inhibition of HCV NS3/4A serine protease by continuous spectrophotometric assay
Parameters: species or system Hepacivirus hominis
Quick note: pKi means taking -log10 of the concentration in moles per liter.

C=CCNC(=O)C(=O)C(CC1CC1)NC(=O)[C@@H]1CC2(CN1C(=O)[C@@H](NC(=O)NC(C)(C)C)C(C)(C)C)SCCS2 (some centres not stated) :: 6.15
C=CCNC(=O)C(=O)C(CCC)NC(=O)[C@@H]1CC2(CN1C(=O)[C@@H](NC(=O)N[C@@H](CN1C(=O)CC(C)(C)CC1=O)C(C)(C)C)C1(C)CCCCC1)SCCS2 (some centres not stated) :: 8.22
C=CCNC(=O)C(=O)C(CC1CC1)NC(=O)[C@@H]1CC2(CN1C(=O)[C@@H](NC(=O)N[C@@H](CN1C(=O)CC(C)(C)CC1=O)C(C)(C)C)C(C)(C)C)SCCS2 (some centres not stated) :: 7.68
C=CCNC(=O)C(=O)C(CC1CC1)NC(=O)[C@@H]1CC2(CN1C(=O)[C@@H](NC(=O)N[C@@H](CN1C(=O)CC(C)(C)CC1=O)C(C)(C)C)C1(C)CCCCC1)SCCS2 (some centres not stated) :: 7.74
CC(C)(C)NC(=O)N[C@H](C(=O)N1CC2(C[C@H]1C(=O)NC(CC1CC1)C(=O)C(N)=O)SCCS2)C1CCCCC1 (some centres not stated) :: 6.70
C=CCNC(=O)C(=O)C(CC1CC1)NC(=O)[C@@H]1CC2(CN1C(=O)[C@@H](NC(=O)N[C@@H](C(=O)OC1CC1)C(C)C)C1CCCCC1)SCCS2 (some centres not stated) :: 7.14

Problem: Need pKi of C=CCNC(=O)C(=O)C(CCC)NC(=O)[C@@H]1CC2(CN1C(=O)[C@@H](NC(=O)NC1(CS(=O)(=O)C(C)(C)C)CCCCC1)C(C)(C)C)SCCS2 (some centres not stated) , thanks.
Result: 7.96

Source: ChEMBL document CHEMBL1154989
